Data credit: patent US8354402B2

# Tested on: ApoB secretion, HepG2 cells
# assayRemarks: Quantification of the secretion of ApoB (HepG2 cells, immunoprecipitation, scintillation counting)
# Assay type: cell-based
# conditionDescription: Homo sapiens, HepG2, 24 h, 24 hours of incubation
endpointName: log10 IC50 (log10 of the value in µM)
Heads up: the numbers are on a log10 scale; they represent IC50 in µM.

// solved cases for log10 IC50 follow
1) COC(=O)C(c1ccccc1)N1CCN(c2ccc(NC(=O)c3ccccc3-c3ccc(C(F)(F)F)cc3)cc2Cl)CC1 (centres unmarked) [Co. No. 205]: -1.32
2) C=CCOC(=O)C(c1ccccc1)N1CCC(c2ccc(NC(=O)c3ccccc3-c3ccccc3)cc2)CC1 (centres unmarked) [Co. No. 154]: 0.37
3) CCNC(=O)C(c1ccccc1)C1CCN(c2ccc(NC(=O)c3ccccc3-c3ccccc3OC)cc2)CC1 (centres unmarked) [Co. No. 135]: -0.83

// input: 6 compounds below; output: log10 IC50 for each
1. CCNC(=O)C(c1ccccc1)C1CCN(c2ccc(NC(=O)c3ccccc3-c3ccc(OC)cc3)cc2)CC1 (centres unmarked) [Co. No. 93]
2. CCNC(=O)C(c1ccccc1)N1CCN(c2ccc(NC(=O)c3cc(OC)c(OC)cc3-c3ccc(C(F)(F)F)cc3)cc2)CC1 (centres unmarked) [Co. No. 202]
3. O=C(Nc1ccc(N2CCC(C(C(=O)Nc3ccccc3)c3ccccc3)CC2)cc1)c1ccccc1-c1ccc(Cl)c(Cl)c1 (centres unmarked) [Co. No. 110]
4. O=C(Nc1ccc(N2CCN(CC(C(=O)NCc3ccccc3)c3ccccc3)CC2)cc1)c1ccccc1-c1ccc(C(F)(F)F)cc1 (centres unmarked) [Co. No. 67]
5. COC(=O)C(c1ccccc1)N1CCN(c2ccc(NC(=O)c3cc(Cl)ccc3-c3ccc(C(F)(F)F)cc3)cc2)CC1 (centres unmarked) [Co. No. 191]
6. O=C(Nc1ccc(N2CCC(C(C(=O)Nc3ccccc3)c3ccccc3)CC2)cc1)c1ccccc1-c1cccc(Cl)c1 (centres unmarked) [Co. No. 108]

[-1.14, -0.74, -0.80, -0.61, -2.14, -0.73]

Batch request: log10 IC50 for each of the following compounds.
1. O=C(Nc1ccc(N2CCC(C(C(=O)NCc3ccccc3)c3ccccc3)CC2)cc1)c1ccccc1CSc1ccccc1 (centres unmarked) [Co. No. 6]
2. CCNC(=O)C(c1ccccc1)N1CCN(c2ccc(NC(=O)c3ccccc3-c3ccc(C(F)(F)F)cc3)cc2C(F)(F)F)CC1 (centres unmarked) [Co. No. 217]

[-0.97, 0.43]
